B1: ZNF193 (parent)
chain: QCIECGKSFNRHCNLIRHQKIHTV

variants of: B1; assay: protein stability index of a GFP-peptide fusion (GPS, HEK-293T) (PSI 1-6); higher = more stable; settings: c terminus: a fixed tail appended;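 also: lentivirally expressed fusions sorted by FACS into six bins by GFP to DsRed ratio, PSI derived from sequencing read proportions per bin multiplied by bin number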
Rule: true (1) for protein stability index not less than 3, false (0) for anything less.

Please tell me: is the variant K7V at or over 3 in terms of protein stability index?
false (0)

Textbook exercise: given the entry I3N , state whether its protein stability index is greater than or equal to 3.
true (1)

Does K7Q have a reported protein stability index of at least 3?
true (1)

Determine whether measured protein stability index meets or exceeds 3 for H18S
false (0)

Tell me whether protein stability index is at least 3 here: I21H
true (1)

Item N10W with protein stability index of 3 or above?
true (1)

Has Q1W a recorded protein stability index greater than or equal to 3?
false (0)

Tell me whether protein stability index is at least 3 here: R11V
true (1)

Is reported protein stability index greater than or equal to 3 here: V24K
true (1)

Reported protein stability index reaches at least 3 for N10I ?
true (1)

Evaluate L15I : protein stability index at minimum 3?
false (0)

Decide: protein stability index of S8W >= 3?
true (1)

Is it the case that C13H has protein stability index reaching or exceeding 3?
true (1)

# bool: protein stability index of H12E >= 3
true (1)

Assess whether reported protein stability index for Q1L sits at 3 or higher.
true (1)

Record C13Q ; criterion: protein stability index no lower than 3. Met?
true (1)

Please indicate if the recorded protein stability index for K7H meets or exceeds 3.
false (0)

Is reported protein stability index greater than or equal to 3 here: H12M
true (1)

Does L15A have a reported protein stability index of at least 3?
false (0)

# check: protein stability index of I21G is greater than or equal to 3
true (1)
